Each recorded value in this set is attributed to the Human Domainome abundance scans (Beltran et al. 2025).

B1: Transitional endoplasmic reticulum ATPase, residues 26 to 106; numbered along this chain, P55072 (parent)
chain: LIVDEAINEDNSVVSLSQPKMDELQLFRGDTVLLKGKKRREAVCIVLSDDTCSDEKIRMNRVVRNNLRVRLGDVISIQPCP

- Variants of: B1
- testSummary: abundance fitness (aPCA) (normalised: wild type 0, dead -1); higher = more abundant; growth selection in yeast, the domain comes from the species named
- conditionsUsed: Homo sapiens
Each entry below carries its reported abundance fitness.

{"variantKey": "I77A", "abundance fitness": -0.309}
{"variantKey": "I77M", "abundance fitness": -0.097}
{"variantKey": "K37M", "abundance fitness": 0.156}
{"variantKey": "N8Q", "abundance fitness": -0.025}
{"variantKey": "D73V", "abundance fitness": -0.949}
{"variantKey": "S53C", "abundance fitness": -0.042}
{"variantKey": "G36N", "abundance fitness": 0.058}
{"variantKey": "F27I", "abundance fitness": -0.04}
{"variantKey": "N65M", "abundance fitness": -0.054}
{"variantKey": "L33F", "abundance fitness": -0.318}
{"variantKey": "C44G", "abundance fitness": -0.006}
{"variantKey": "R61N", "abundance fitness": -0.091}
{"variantKey": "T31M", "abundance fitness": -0.004}
{"variantKey": "Q18R", "abundance fitness": -0.046}
{"variantKey": "K38A", "abundance fitness": 0.02}
{"variantKey": "S15I", "abundance fitness": 0.002}
{"variantKey": "D10W", "abundance fitness": -0.189}
{"variantKey": "L71V", "abundance fitness": -0.048}
{"variantKey": "D54E", "abundance fitness": -0.062}
{"variantKey": "S15C", "abundance fitness": -0.006}
{"variantKey": "R68I", "abundance fitness": -0.588}
{"variantKey": "S15M", "abundance fitness": -0.058}
